TESTED_TARGET: human VR1 (Homo sapiens)
Construct: expressed in transfected cells; host or cells: HEK293
Sequence (Q8NER1 whole entry): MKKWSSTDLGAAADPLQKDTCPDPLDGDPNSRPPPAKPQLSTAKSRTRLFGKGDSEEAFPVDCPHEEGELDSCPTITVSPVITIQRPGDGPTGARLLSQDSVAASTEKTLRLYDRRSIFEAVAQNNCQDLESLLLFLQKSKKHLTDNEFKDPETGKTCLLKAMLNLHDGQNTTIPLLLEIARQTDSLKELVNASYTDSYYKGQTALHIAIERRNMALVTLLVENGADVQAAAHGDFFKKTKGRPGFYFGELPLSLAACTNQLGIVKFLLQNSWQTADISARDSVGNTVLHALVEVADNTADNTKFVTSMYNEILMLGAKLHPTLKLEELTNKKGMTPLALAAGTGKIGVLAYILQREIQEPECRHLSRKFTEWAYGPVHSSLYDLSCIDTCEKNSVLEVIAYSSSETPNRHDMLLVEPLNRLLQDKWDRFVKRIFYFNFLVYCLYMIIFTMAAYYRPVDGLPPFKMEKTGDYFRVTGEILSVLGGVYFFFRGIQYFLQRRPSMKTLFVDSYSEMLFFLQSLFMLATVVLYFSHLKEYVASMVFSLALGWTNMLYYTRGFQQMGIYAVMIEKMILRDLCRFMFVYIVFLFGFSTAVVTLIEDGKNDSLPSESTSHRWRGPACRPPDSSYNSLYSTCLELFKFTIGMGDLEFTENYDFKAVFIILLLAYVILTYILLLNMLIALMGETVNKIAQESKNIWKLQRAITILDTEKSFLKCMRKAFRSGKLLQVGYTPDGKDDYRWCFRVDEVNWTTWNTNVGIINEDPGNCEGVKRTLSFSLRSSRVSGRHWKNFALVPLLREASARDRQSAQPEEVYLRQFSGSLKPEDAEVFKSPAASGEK
ASSAY_METHOD_TEXT: Human VR1 [3H] RTX binding assay
PARTICULARS: 3H-RTX binding; hVR1; read-out: 3H-RTX binding assay Ki hVR1
Description: Compounds of the present invention were tested for their ability to inhibit the binding of [^3H] RTX to hVR1 receptors in a [^3H] HEK293 cells were transfected with human VR1 vanilloid receptors and washed with Hank's Balanced Salt Solution, dissociated with cell dissociation buffer (Sigma), and then centrifuged at 1000×g for 5 min. […] Approximately 120 μg protein/ml from membranes were incubated with indicated concentrations of [^3H] […] Bound radioactivity was quantified by scintillation counting. […]
ENDPOINT: pKi
// pKi here means minus log10 of the molar concentration (mol/L)

Consider the reported pKi for these compounds:
O=C(Nc1cnc2ccccc2c1)c1ccc(N2CCCCCCC2)cc1 [4-Azocan-1-yl-N-quinolin-3-yl-benzamide]; 7.73
O=C(Nc1cnc2ccccc2c1)c1ccc2c(c1)CCCC2; 7.21
O=C(CCc1ccc2c(c1)CCN2CC1CCCCC1)Nc1cnc2ccccc2c1; 6.29

Lookup: pKi lookup needed for CN(CCc1ccccc1)c1ccc(CCC(=O)Nc2cnc3ccccc3c2)cc1 , thanks.
Found: 6.72

Lookup: Give its pKi value. Item: CCC(C)(C)c1ccc(CCC(=O)Nc2cnc3ccccc3c2)cc1 [Example 14]
Found: 8.28

###

TESTED_TARGET: human VR1 (Homo sapiens)
Construct: expressed in transfected cells; host or cells: HEK293
ASSAY_METHOD_TEXT: Human VR1 [3H] RTX binding assay
PARTICULARS: 3H-RTX binding; compound at 1 μM
Documented inhibition at 1 µM across a set of compounds
Numbers only here, please. The scale is %.

Use these answered entries as a reference point.
O=C(Nc1cnc2ccccc2c1)c1ccc(N2CCC(Cc3ccccc3)CC2)cc1; 99
Cc1ccc(C(C)CCN(C)c2ccc(C(=O)Nc3cnc4ccccc4c3)cc2)o1 (stereo not drawn); 102
CCCCCNc1ccc(C(=O)Nc2cnc3ccccc3c2)cn1; 57
CCCC1CCN(c2ccc(C(=O)Nc3cnc4ccccc4c3)cc2)CC1; 92
O=C(Nc1cnc2ccccc2c1)c1ccc2c(c1)CCN2C1CCCCC1; 103

Lookup: Request: inhibition at 1 µM, test system human VR1 (Homo sapiens), entry CCCCCCCNc1ccccc1C(=O)Nc1cnc2ccccc2c1 [2-Heptylamino-N-quinolin-3-yl-benzamide]
Found: 79

Lookup: Short answer please: inhibition at 1 µM, human VR1 (Homo sapiens), entry CCCN1CCc2cc(CCC(=O)Nc3cnc4ccccc4c3)ccc21
Found: 51

Lookup: Recorded inhibition at 1 µM for CCCC(=O)N1CCc2cc(C(=O)Nc3cnc4ccccc4c3)ccc21 with human VR1 (Homo sapiens), please?
Found: 2

Lookup: Record lookup: for human VR1 (Homo sapiens), what inhibition at 1 µM belongs to O=C(Nc1cnc2ccccc2c1)c1ccc2c(c1)CCN2C(=O)C1CCCCC1 ?
Found: 25

Lookup: Param readout = inhibition at 1 µM; param system = human VR1 (Homo sapiens); param query = CCCCC(C)(C)c1cc(OC)c(CCC(=O)Nc2cnc3ccccc3c2)c(OC)c1 ; response: value
Found: 96

Lookup: Request: inhibition at 1 µM, test system human VR1 (Homo sapiens), entry CN(c1ccc(CCC(=O)Nc2cnc3ccccc3c2)cc1)C1CCCCC1
Found: 51

Lookup: State its inhibition at 1 µM on human VR1 (Homo sapiens): CCCCCn1ccc2cc(C(=O)Nc3cnc4ccccc4c3)ccc21
Found: 95

Lookup: What is its inhibition at 1 µM for human VR1 (Homo sapiens)? Entry: Cc1cc(C(=O)Nc2cnc3ccccc3c2)ccc1NCC1CCCCC1
Found: 111

Lookup: Request - read-out inhibition at 1 µM | tested on human VR1 (Homo sapiens) | compound O=C(Nc1cnc2ccccc2c1)c1ccc(N2CC[C@@H]3CCCC[C@H]3C2)cc1 (relative stereo)
Found: 104

Lookup: GET /values?readout=inhibition at 1 µM&system=human VR1 (Homo sapiens)&item= O=C(Nc1cnc2ccccc2c1)c1ccc(NC2CCOCC2)cc1
Found: 9
